Test system: U87MG cells
protocol.notes: cells
Format: cell-based
test.context: Homo sapiens, U-87 MG; U87MG cells, 48 hr, ATP assay; read-out: Cell Viability IC50
quantity: IC50 (µM)
Numeric only. Scale: µM

Give its IC50 value. Item: Cc1cc(C)cc(C(=O)NC(=S)Nc2c(O)cc(C)c(Cl)c2C)c1
12.4

Query Cc1cc(C)cc(C(=O)NC(=S)Nc2c(O)cc(C(F)(F)F)cc2C(F)(F)F)c1 next
18.8

Query Cc1cc(C)cc(C(=O)NC(=S)Nc2cc([N+](=O)[O-])ccc2O)c1 next
33.9

Query O=C(NC(=S)Nc1cc([N+](=O)[O-])cc(Cl)c1O)c1ccccc1 next
39.9

Query Cc1cc(C)cc(C(=O)NC(=S)Nc2cc(C(F)(F)F)ccc2O)c1 next
20.7

Query Cc1cc(C)cc(C(=O)NC(=S)Nc2c(O)cc(C)c(Br)c2C)c1 next
12.6

Query Cc1cc(C)cc(C(=O)NC(=S)Nc2cc(-c3ccccc3)ccc2O)c1 next
6.6

====

target.entity: Akt PH domain (Homo sapiens (Human), UniProt P31749)
protocol.notes: PH domain translocation assay (GFP fusion, plasma membrane)
Assay type: cell-based
test.context: PDGF stimulation
Sequence (P31749 5-108): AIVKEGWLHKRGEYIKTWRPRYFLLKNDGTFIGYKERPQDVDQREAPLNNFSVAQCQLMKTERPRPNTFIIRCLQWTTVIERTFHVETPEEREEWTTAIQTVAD
quantity: plasma membrane translocation of Akt PH domain

O=C(NC(=O)c1ccccc1)Nc1cc([N+](=O)[O-])cc(Cl)c1O [PIT-1i-1, reference compound] = inactive
COc1c(Cl)cc([N+](=O)[O-])cc1NC(=S)NC(=O)c1ccccc1 = inactive

====

target.entity: Akt PH domain (Homo sapiens (Human))
Could you please report measured pIC50 for the items listed next?
Scale: pIC50 equals -log10([C]), with [C] in mol/L.

Give its pIC50 value. Item: Cc1cc(C)cc(C(=O)NC(=S)Nc2cc([N+](=O)[O-])ccc2O)c1
4.57

Query Cc1cc(C)cc(C(=O)NC(=S)Nc2cc(C(F)(F)F)ccc2O)c1 next
4.65

Query Cc1cc(C)cc(C(=O)NC(=S)Nc2c(O)cc(C)c(Cl)c2C)c1 next
4.76

Query Cc1cc(C)cc(C(=O)NC(=S)Nc2c(O)cc(C(F)(F)F)cc2C(F)(F)F)c1 next
4.68

Query O=C(NC(=S)Nc1cc([N+](=O)[O-])cc(Cl)c1O)c1ccccc1 next
4.51

Query Cc1cc(C)cc(C(=O)NC(=S)Nc2cc(-c3ccccc3)ccc2O)c1 next
4.87

Query Cc1cc(C)cc(C(=O)NC(=S)Nc2c(O)cc(C)c(Br)c2C)c1 next
4.74
